The measurements presented in this section are drawn from patent US4639541A.

Tested on: Penicillium glaucum
Test: Spore germination test, Penicillium glaucum
Assay type: cell-based
Settings: 2 ppm, 48 hours, 20° C., vs untreated control
Protocol: 50 μl of a solution or suspension of an active ingredient according to the invention together with 50 μl of a spore suspension produced by washing spores of an agar culture with a nutrient solution that contained per liter 10 g of sugar, 1 g of glycol, 1 g of KH2 PO4 and 0.5 g of MgSO4 were introduced into the concave-ground portion of concave-ground microscope slides. […] The degree of activity was calculated as a percentage in accordance with the following formula: [formula]
test.readout: degree of activity (fungal toxicity with respect to fungal spores) (%)
Field format: number, assumed %, no unit text.

Look over these answered cases.
For the molecule O=C(OCC#CI)C(Cl)c1ccccc1 (centres unmarked) [D] , give its measured degree of activity (fungal toxicity with respect to fungal spores) value.
95

Return the recorded degree of activity (fungal toxicity with respect to fungal spores) value; entry: O=C(Cc1cc([N+](=O)[O-])c(Cl)c([N+](=O)[O-])c1)OCC#CI [H]
100

// Input: O=C(Cc1cc([N+](=O)[O-])c(Cl)cc1Cl)OCC#CI [E] . Output its degree of activity (fungal toxicity with respect to fungal spores) only.
100

Retrieve degree of activity (fungal toxicity with respect to fungal spores) measured for O=C(Cc1ccc(Cl)cc1)OCC#CI [A] and print it.
95

Entry O=C(Cc1ccc([N+](=O)[O-])cc1)OCC#CI [F] needs its degree of activity (fungal toxicity with respect to fungal spores) filled in; supply it.
80

Others:
Please indicate degree of activity (fungal toxicity with respect to fungal spores) recorded for O=C(OCC#CI)C(Br)c1ccc(Cl)cc1 (centres unmarked) [B]
100

Report degree of activity (fungal toxicity with respect to fungal spores) for O=C(Cc1c(Cl)cccc1Cl)OCC#CI [C]
90

Quote degree of activity (fungal toxicity with respect to fungal spores) reported for O=C(Cc1cc([N+](=O)[O-])c(Cl)c([N+](=O)[O-])c1Cl)OCC#CI [G] please.
70
